Measured values drawn from patent US20180338980A1 for this set.

experimentalTarget: UniProtKB Q99571
Sequence (Q99571 1-388): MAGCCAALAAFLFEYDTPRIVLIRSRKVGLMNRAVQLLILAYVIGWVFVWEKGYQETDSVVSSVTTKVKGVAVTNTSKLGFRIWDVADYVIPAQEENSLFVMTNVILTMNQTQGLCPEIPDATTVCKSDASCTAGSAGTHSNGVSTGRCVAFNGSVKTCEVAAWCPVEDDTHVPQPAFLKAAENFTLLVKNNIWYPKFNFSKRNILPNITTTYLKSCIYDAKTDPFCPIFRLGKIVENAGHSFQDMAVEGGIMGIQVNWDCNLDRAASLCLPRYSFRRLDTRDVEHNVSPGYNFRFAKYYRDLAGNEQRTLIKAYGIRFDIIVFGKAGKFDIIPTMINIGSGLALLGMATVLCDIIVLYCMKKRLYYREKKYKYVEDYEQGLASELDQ
assayExplanation: Assay A: human P2X4 receptor cell line, FLIPR calcium assay (Fluo-8, agonist Bz-ATP at EC80)
Type: cell-based
Parameters: host or cells: HEK 293 (recombinant, constitutively expressing; with mitochondrial photina in Assay B)
runParameters: percentage of maximal inhibition; HEK human P2X4 cells, Fluo-8 FLIPR; read-out: human P2X4 Assay A avg Efficacy
Could you label it t if measured Emax is 80% or higher, and f otherwise?

# count of solved cases: 8
molecule	cat
CC1(C)CC(COc2ccc(NC(=O)Cc3ccccc3Cl)cc2S(N)(=O)=O)CCO1 (stereo not shown) [Example 265]	f
NS(=O)(=O)c1cc(NC(=O)Cc2ccccc2Cl)ccc1OCc1ccccc1Cl [Example 144]	t
NS(=O)(=O)c1cc(NC(=O)Cc2cc(F)ccc2Cl)cc(F)c1Oc1cccc(Cl)c1 [Example 292]	f
N#Cc1cccc(COc2ccc(NC(=O)Cc3ccccc3Cl)cc2S(N)(=O)=O)c1 [Example 142]	t
Cc1ccc(Br)c(Cl)c1CC(=O)Nc1ccc(Oc2cccc(Cl)c2)c(S(N)(=O)=O)c1 [Example 132]	f
NS(=O)(=O)c1cc(NC(=O)Cc2ccccc2Cl)ccc1Oc1cncc(F)c1 [Example 080]	f
NS(=O)(=O)c1cc(NC(=O)Cc2c(Cl)ccc(C3CC3)c2Cl)ccc1Oc1cccc(Cl)c1 [Example 129]	t
NS(=O)(=O)c1cc(NC(=O)Cc2cc(F)ccc2Cl)ccc1Oc1cccc(Cl)c1 [Example 099]	f

Threshold query (Emax >= 80%) on [2H]c1c([2H])c(Oc2ccc(NC(=O)Cc3ccccc3Cl)cc2S(N)(=O)=O)c([2H])c([2H])c1Cl [Example 262]
f

Threshold query (Emax >= 80%) on NS(=O)(=O)c1cc(NC(=O)Cc2c(Cl)ccc(C(F)(F)F)c2Cl)ccc1Oc1cccc(Cl)c1 [Example 130]
t

Threshold query (Emax >= 80%) on COc1cccc(Oc2ccc(NC(=O)Cc3ccccc3Cl)cc2S(N)(=O)=O)c1 [Example 022]
t

Threshold query (Emax >= 80%) on NS(=O)(=O)c1cc(NC(=O)Cc2ccccc2Cl)ccc1OCc1ccncc1 [Example 151]
t

Threshold query (Emax >= 80%) on NS(=O)(=O)c1cc(NC(=O)Cc2ccccc2Cl)ccc1Oc1cccc(F)c1 [Example 011]
t

Threshold query (Emax >= 80%) on NS(=O)(=O)c1cc(NC(=O)Cc2ccccc2Cl)ccc1OCc1ccc(F)cc1 [Example 143]
f

Threshold query (Emax >= 80%) on NS(=O)(=O)c1cc(NC(=O)Cc2ccc(C(F)(F)F)cc2)ccc1Oc1cccc(Cl)c1 [Example 116]
t
